# System: A498 renal
# EXPERIMENTAL_PROTOCOL: NCI tumour cell line growth inhibition, 48 h
QUANTITY_MEASURED: log10(TGI) (log10 of the value in µM)

MOLECULE | OBSERVED_VALUE
CCC1(O)C=CC(=O)C=C1 | 1.83
[Cu+2].[Cu+2].[O-]c1ccccc1C=Nc1ccccc1[O-].[O-]c1ccccc1C=Nc1ccccc1[O-] | 1.45
CCC(=O)Sc1ccccc1C(=O)Nc1ccc(Cl)cc1 | 1.59
COc1c2nc(CCl)n(C)c(=O)c2c(OC)c2c(=O)n(C)c(CCl)nc12 | 0.77
O=C1C=C(SCCO)C(=O)c2ccccc21 | 1.43
CCCOC(=O)N[C@H]1CCc2c(Br)c(OC)c(OC)c(OC)c2-c2ccc(SC)c(=O)cc21 | -1.29
CN(C)[C@@H]1C(=O)C(C(N)=O)=C(O)[C@@]2(O)C(=O)C3=C(O)c4c(O)cccc4C[C@H]3C[C@@H]12 | 0.66
O=C1Nc2ccc(Cl)cc2/C1=C\c1c(-c2ccc(F)cc2)nc2ccccn12 | 0.65
CN(C)CC1CCC/C(=C\c2ccc(N(C)C)cc2)C1=O (centres undefined) | 1.49
COc1ccc(-c2cc3c4c(nc5ccccc5c4c2)CC(c2cc(OC)c(OC)c(OC)c2)O3)cc1 (centres undefined) | 1.13
C=C1CC2CC[C@@]34C[C@@H]5O[C@@H]6C(O[C@H]7CC[C@H](CC(=O)OC8[C@@H](C)C9OC%10C[C@]%11(C[C@@H]%12O[C@@]%13(C[C@@H](C)[C@@H]%12O%11)C[C@H](C)[C@@H]%11OC%12CC(C(O)CO)OC%12C[C@@H]%11O%13)OC%10CC9O[C@H]8C[C@H]8O[C@@H](CC[C@@H]1O2)C[C@@H](C)C8=C)O[C@@H]7[C@@H]6O3)C5O4 (some centres undefined) | -1.78
CCOn1cc(C[C@@]2(O)C(=O)OC3[C@@H](O)CO[C@@]32O)c2ccccc21 (some centres undefined) | 0.61
COC1=CC(c2ccc[nH]2)=N/C1=C\c1[nH]c(C)c(C(=O)CCC(=O)Oc2ccc3c(c2)CCC2C3CC[C@]3(C)C(=O)CC[C@@H]23)c1C (some centres undefined) | 1.76
CC1(C)CCC(S(=O)(=O)c2ccc3c(c2)/C(=N\O)c2cc(S(=O)(=O)N4CCC(O)(c5cccc(C(F)(F)F)c5)CC4)ccc2-3)CC1 | 0.59
c1ccc2c(c1)O[As](O[As]1Oc3ccccc3O1)O2 | 0.75
O=C1N[C@H]2c3c(Cl)sc(Cl)c3C(=O)[C@H]2O1 | 1.64
CCOc1ccc(NC(=O)Nc2cc(C(C)C)ccc2C)cc1 | 1.27
COc1cc(-c2c3c(cn2S(=O)(=O)c2ccccc2)-c2nc(N)sc2CC3)cc(OC)c1OC | 1.35
COc1ccc2c(c1)Oc1nc(N)c(C#N)c(N)c1C2Sc1ccc(SC)cc1 (centres undefined) | 0.52
